Tested on: HL-60(TB) leukemia
assayProcedure: NCI-60 one-dose screen, 48 h (100 = growth as untreated, 0 = no growth, -100 = all killed)
measurementSetup: 10 µM unless noted
This is part of a sample that, as a whole, favours compounds with a hit. Of some 83,000 tested, about 20% had one in any assay.
Decide using growth alone. Strictly below 90%: true. Equal to or above 90%: false.

Prompt line: Consider CCC[CH2][Sn]([CH2]CCC)([CH2]CCC)[O]C(=O)CC . Does its growth lie strictly below 90%?
Response line: true

Prompt line: Consider COc1ccc(/C(=C(\c2ccccc2)[N+](=O)[O-])c2ccc(OCCN3CCCC3)cc2)cc1 . Does its growth lie strictly below 90%?
Response line: true

Prompt line: Consider CCCCNC(=O)c1ccc(OCC)cc1 . Does its growth lie strictly below 90%?
Response line: false

Prompt line: Consider O=C(NCCNCCO)c1cc([N+](=O)[O-])cc([N+](=O)[O-])c1O . Does its growth lie strictly below 90%?
Response line: false

Prompt line: Consider CCCCOc1ccc(/C=N/Nc2cc(C)nc3ccc(Br)cc23)cc1 . Does its growth lie strictly below 90%?
Response line: true

---

System: HL-60(TB) leukemia
assayProcedure: NCI-60 one-dose screen, 48 h
measurementSetup: 10 µM unless noted
About 83,000 compounds went through this panel and 20% of them were active in at least one assay; those are over-represented in the sample as a whole. Calls of active or inactive are those of the source. How the source made its calls: active means growth percent below 10; inactive means the rest.
Bench note: report the call from yes (active), no (inactive)

Prompt line: Field: outcome | Entry: COc1ccc(-c2nn(-c3ccc(NC(=O)Nc4cc(C(F)(F)F)cc(C(F)(F)F)c4)cc3)cc2-c2ccncc2)cc1Cl
Response line: yes

Prompt line: Field: outcome | Entry: Cl.Fc1c[c-]c(-c2ccccn2)c(F)c1.[Pt].c1ccc(P(c2ccccc2)C([PH+](c2ccccc2)c2ccccc2)[PH+](c2ccccc2)c2ccccc2)cc1
Response line: yes

Prompt line: Field: outcome | Entry: COc1cc(/C=C\c2cc(OC)c(OC)c(OC)c2)cc(NC(=O)/C=C/c2cc(OC)c(OC)c(OC)c2)c1OC
Response line: yes

Prompt line: Field: outcome | Entry: CCCCN=C(N)c1ccc(OCCSCCOc2ccc(C(N)=NCCCC)cc2)cc1
Response line: no

---

Test system: HL-60(TB) leukemia
assayProcedure: NCI-60 one-dose screen, 48 h (100 = growth as untreated, 0 = no growth, -100 = all killed)
measurementSetup: 10 µM unless noted
The panel holds about 83,000 compounds, 20% with a hit somewhere; the sample as a whole holds those more often.
Binary classification by growth, with 80% as an inclusive lower bound for yes (1); all other cases are no (0).

Prompt line: Does CN(CCc1ccccc1)C(=S)N(C(=O)c1ccc([N+](=O)[O-])cc1)c1ccc(Cl)cc1 have a reported growth of at least 80%?
Response line: no (0)

Prompt line: Does COc1cc(C2=NN(C(C)=O)C(c3ccc(OC(C)=O)cc3OC(C)=O)O2)c(OC(C)=O)c2ccccc12 (stereo unspecified) have a reported growth of at least 80%?
Response line: no (0)

Prompt line: Does COc1cc(OC)c2cc(C(=O)O)c(=O)oc2c1 have a reported growth of at least 80%?
Response line: no (0)

Prompt line: Does c1ccc(CCn2nnc3c(Nc4ccc(N5CCOCC5)cc4)ncnc32)cc1 have a reported growth of at least 80%?
Response line: yes (1)

Prompt line: Does O=C(CCCCl)NNc1nccc(Nc2ccc(S(=O)(=O)Nc3ccncc3)cc2)n1 have a reported growth of at least 80%?
Response line: yes (1)

Prompt line: Does O=S(=O)(O)c1cnccn1 have a reported growth of at least 80%?
Response line: yes (1)

Prompt line: Does CCCS(=O)(=O)Nc1ccc(F)c(C(=O)c2c[nH]c3ncc(-c4ccc(OCCCC5CCCCN5)nc4)cc23)c1F (stereo unspecified) have a reported growth of at least 80%?
Response line: yes (1)

Prompt line: Does Cc1c2cnccc2c(C)c2c1oc1ccccc12 have a reported growth of at least 80%?
Response line: no (0)

Prompt line: Does CCn1c(SCc2ccc(C)cc2)nnc1-c1nn(-c2ccc(Cl)cc2Cl)c(-c2ccc(Cl)cc2)c1C have a reported growth of at least 80%?
Response line: no (0)

Prompt line: Does O=C(N1CCC(CN=c2cc3n(-c4ccc(Cl)cc4)c4ccccc4nc-3cc2Nc2ccc(Cl)cc2)CC1)N1CC1 have a reported growth of at least 80%?
Response line: no (0)

Prompt line: Does O=C1c2cccc3c(-c4ccc5c(c4)ncn5C4CCCCC4)ccc(c23)C(=O)N1CCO have a reported growth of at least 80%?
Response line: yes (1)

Prompt line: Does CCN1C(=O)N(CC)C2C1NN=c1s/c(=C3\C(=O)N(CC(C)(C)C)c4ccccc43)c(=O)n12 (stereo unspecified) have a reported growth of at least 80%?
Response line: no (0)

Prompt line: Does CN(C)CCN(Cc1ccccc1)c1ccc2ccccc2n1 have a reported growth of at least 80%?
Response line: yes (1)

Prompt line: Does Nc1nc(OCc2ccccc2)c2[nH]cnc2n1 have a reported growth of at least 80%?
Response line: no (0)

Prompt line: Does CC/C=C\C[C@H](O)C/C=C1/C(=O)C=C[C@@H]1C/C=C\CCCC(=O)OC have a reported growth of at least 80%?
Response line: no (0)

Prompt line: Does CCC/C(=N/NC(N)=O)c1ccco1 have a reported growth of at least 80%?
Response line: no (0)

Prompt line: Does COc1cc(NCCCN(CC(C)C)CC(C)C)c2ncccc2c1 have a reported growth of at least 80%?
Response line: yes (1)

Prompt line: Does COc1ccc(C(=O)Nc2ncc(Cc3ccc(Cl)cc3)s2)cc1 have a reported growth of at least 80%?
Response line: no (0)

Prompt line: Does CC(C)(C)CC(C)(C)c1ccc(OCCOCC[N+](C)(C)Cc2ccccc2)cc1 have a reported growth of at least 80%?
Response line: no (0)

Prompt line: Does Cc1ccc2c(c1)O/C(=C\c1cccc(OCC(=O)c3ccccc3)c1)C2=O have a reported growth of at least 80%?
Response line: no (0)
